Taken from patent US10307413B2.

Target: PRMT5/MEP50 (Homo sapiens (Human))
Sequence (O14744 other isoform, or with tags, fused parts or gaps): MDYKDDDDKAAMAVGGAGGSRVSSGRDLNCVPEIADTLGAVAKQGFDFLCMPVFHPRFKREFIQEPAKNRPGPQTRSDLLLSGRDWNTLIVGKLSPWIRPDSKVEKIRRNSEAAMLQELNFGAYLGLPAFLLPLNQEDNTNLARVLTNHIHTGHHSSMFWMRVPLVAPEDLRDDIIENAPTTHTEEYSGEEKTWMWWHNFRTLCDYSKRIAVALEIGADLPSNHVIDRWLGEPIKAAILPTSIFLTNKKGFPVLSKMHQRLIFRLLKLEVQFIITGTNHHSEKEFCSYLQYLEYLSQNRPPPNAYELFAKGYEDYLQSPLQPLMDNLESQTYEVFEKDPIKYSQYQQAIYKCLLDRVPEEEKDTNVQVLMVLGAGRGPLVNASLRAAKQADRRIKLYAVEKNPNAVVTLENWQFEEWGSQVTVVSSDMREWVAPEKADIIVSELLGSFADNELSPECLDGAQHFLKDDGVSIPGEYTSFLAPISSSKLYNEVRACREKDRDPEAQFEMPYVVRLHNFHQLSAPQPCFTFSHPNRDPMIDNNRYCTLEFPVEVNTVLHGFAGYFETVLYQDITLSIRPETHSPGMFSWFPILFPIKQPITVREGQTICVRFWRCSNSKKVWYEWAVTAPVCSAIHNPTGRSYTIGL
Sequence (Q9BQA1 other isoform, or with tags, fused parts or gaps partner): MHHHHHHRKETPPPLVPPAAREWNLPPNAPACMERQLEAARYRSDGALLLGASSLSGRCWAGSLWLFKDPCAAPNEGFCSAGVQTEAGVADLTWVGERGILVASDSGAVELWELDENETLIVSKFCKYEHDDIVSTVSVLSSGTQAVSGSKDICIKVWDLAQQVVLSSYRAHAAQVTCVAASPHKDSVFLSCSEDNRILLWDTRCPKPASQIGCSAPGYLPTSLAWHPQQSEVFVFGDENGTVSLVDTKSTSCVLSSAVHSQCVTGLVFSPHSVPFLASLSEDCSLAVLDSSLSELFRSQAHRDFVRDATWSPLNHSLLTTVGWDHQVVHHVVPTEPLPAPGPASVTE
Test: PRMT5 Biochemical Assay (PRMT5/MEP50 enzyme assay on peptide substrate, 3H-SAM Flashplate)
Measured IC50 values are reported for all entries that follow.

COMPOUND	TARGET OF ASSAY	IC50
CN(C)CCCNc1cc(C(=O)NC[C@H](O)CN2CCc3ccccc3C2)ncn1 [Compound 354]	PRMT5/MEP50 (Homo sapiens (Human))	< 100 nM
CC(=O)N1CCC(Oc2cncc(C(=O)NC[C@H](O)CN3CCc4ccccc4C3)c2)CC1 [Compound 304]	PRMT5/MEP50 (Homo sapiens (Human))	< 100 nM
Cc1ncc(NC2CCNC2)cc1C(=O)NC[C@H](O)CN1CCc2ccccc2C1 (some centres unmarked) [Compound 310]	PRMT5/MEP50 (Homo sapiens (Human))	< 100 nM
O=C(NCC(O)CN1CCc2ccccc2C1)c1cccc(NC2COC2)c1 (centres unmarked) [Compound 50]	PRMT5/MEP50 (Homo sapiens (Human))	101 to 1000 nM
NS(=O)(=O)c1ccc(C(=O)NCC(O)CN2CCc3ccccc3C2)cc1 (centres unmarked) [Compound 21]	PRMT5/MEP50 (Homo sapiens (Human))	101 to 1000 nM
O=C(NC[C@H](O)CN1CCc2ccccc2C1)c1cc(NC2CCC2)ncn1 [Compound 355]	PRMT5/MEP50 (Homo sapiens (Human))	< 100 nM
COCCNc1cc(C(=O)NC[C@H](O)CN2CCc3ccccc3C2)ncn1 [Compound 352]	PRMT5/MEP50 (Homo sapiens (Human))	101 to 1000 nM
NCCOc1ccc2cc(C(=O)NC[C@H](O)CN3CCc4ccccc4C3)ccc2c1 [Compound 360]	PRMT5/MEP50 (Homo sapiens (Human))	101 to 1000 nM
CN(C)[C@H]1C[C@@H](Nc2cc(C(=O)NC[C@H](O)CN3CCc4ccccc4C3)ncn2)C1 [Compound 377]	PRMT5/MEP50 (Homo sapiens (Human))	< 100 nM
NS(=O)(=O)c1ccccc1C(=O)NCC(O)CN1CCc2ccccc2C1 (centres unmarked) [Compound 33]	PRMT5/MEP50 (Homo sapiens (Human))	1000 to 10000 nM
O=C(NCC(O)CN1CCc2ccccc2C1)c1cccc(C(=O)N2CCOCC2)c1 (centres unmarked) [Compound 46]	PRMT5/MEP50 (Homo sapiens (Human))	1000 to 10000 nM
O=C(NCC(O)CN1CCc2ccccc2C1)c1ccccn1 (centres unmarked) [Compound 17]	PRMT5/MEP50 (Homo sapiens (Human))	101 to 1000 nM
O=C(NCC(O)CN1CCc2ccccc2C1)c1cc(NC2CCOCC2)ccc1F (centres unmarked) [Compound 57]	PRMT5/MEP50 (Homo sapiens (Human))	101 to 1000 nM
CC(=O)Nc1ccc(C(=O)NCC(O)CN2CCc3ccccc3C2)cc1 (centres unmarked) [Compound 23]	PRMT5/MEP50 (Homo sapiens (Human))	101 to 1000 nM
NC(=O)c1ccc(C(=O)NCC(O)CN2CCc3ccccc3C2)cc1 (centres unmarked) [Compound 22]	PRMT5/MEP50 (Homo sapiens (Human))	101 to 1000 nM
CN1CCN(c2nc(NC3COC3)cc(C(=O)NC[C@H](O)CN3CCc4ccccc4C3)n2)CC1 [Compound 394]	PRMT5/MEP50 (Homo sapiens (Human))	< 100 nM
CN(c1cccc(C(=O)NCC(O)CN2CCc3ccccc3C2)c1)C1CCOCC1 (centres unmarked) [Compound 49]	PRMT5/MEP50 (Homo sapiens (Human))	101 to 1000 nM
CC(=O)Nc1cccc(C(=O)NCC(O)CN2CCc3ccccc3C2)c1 (centres unmarked) [Compound 26]	PRMT5/MEP50 (Homo sapiens (Human))	101 to 1000 nM
CNCCCOc1ccc(C(=O)NC[C@H](O)CN2CCc3ccccc3C2)cc1 [Compound 392]	PRMT5/MEP50 (Homo sapiens (Human))	< 100 nM
CCN(C)CCOc1ccc(C(=O)NC[C@H](O)CN2CCc3ccccc3C2)cc1 [Compound 385]	PRMT5/MEP50 (Homo sapiens (Human))	< 100 nM
O=C(NC[C@H](O)CN1CCc2ccccc2C1)c1ccc(OCCN2CCCCC2)cc1 [Compound 371]	PRMT5/MEP50 (Homo sapiens (Human))	< 100 nM
Cc1cc(C(=O)NC[C@H](O)CN2CCc3ccccc3C2)cc(NC2CCC2)n1 [Compound 348]	PRMT5/MEP50 (Homo sapiens (Human))	< 100 nM
CC(C)N(C)CCOc1ccc(C(=O)NC[C@H](O)CN2CCc3ccccc3C2)cc1 [Compound 389]	PRMT5/MEP50 (Homo sapiens (Human))	< 100 nM
